- TARGET OF ASSAY: T1, GST-FLJ00011 PDZ domain 1 (Homo sapiens (Human)), Q9H5P4
- T1 chain: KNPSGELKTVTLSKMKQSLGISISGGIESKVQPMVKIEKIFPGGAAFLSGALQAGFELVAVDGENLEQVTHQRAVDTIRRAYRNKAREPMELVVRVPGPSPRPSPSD
- METHOD DESCRIPTION: G assay titration, PDZ 5 ug/ml
MEASURE: pKd
Quick note: pKd values are minus log10 of concentrations in mol/L.

input: Reported pKd for AWDDSARAAGGQGLHVTAL (modifications not checked) [LPAP] : what is it?
output: 5.82
